- Study System: JAK1 (Homo sapiens (Human), UniProt P23458)
- Sequence (P23458 whole entry): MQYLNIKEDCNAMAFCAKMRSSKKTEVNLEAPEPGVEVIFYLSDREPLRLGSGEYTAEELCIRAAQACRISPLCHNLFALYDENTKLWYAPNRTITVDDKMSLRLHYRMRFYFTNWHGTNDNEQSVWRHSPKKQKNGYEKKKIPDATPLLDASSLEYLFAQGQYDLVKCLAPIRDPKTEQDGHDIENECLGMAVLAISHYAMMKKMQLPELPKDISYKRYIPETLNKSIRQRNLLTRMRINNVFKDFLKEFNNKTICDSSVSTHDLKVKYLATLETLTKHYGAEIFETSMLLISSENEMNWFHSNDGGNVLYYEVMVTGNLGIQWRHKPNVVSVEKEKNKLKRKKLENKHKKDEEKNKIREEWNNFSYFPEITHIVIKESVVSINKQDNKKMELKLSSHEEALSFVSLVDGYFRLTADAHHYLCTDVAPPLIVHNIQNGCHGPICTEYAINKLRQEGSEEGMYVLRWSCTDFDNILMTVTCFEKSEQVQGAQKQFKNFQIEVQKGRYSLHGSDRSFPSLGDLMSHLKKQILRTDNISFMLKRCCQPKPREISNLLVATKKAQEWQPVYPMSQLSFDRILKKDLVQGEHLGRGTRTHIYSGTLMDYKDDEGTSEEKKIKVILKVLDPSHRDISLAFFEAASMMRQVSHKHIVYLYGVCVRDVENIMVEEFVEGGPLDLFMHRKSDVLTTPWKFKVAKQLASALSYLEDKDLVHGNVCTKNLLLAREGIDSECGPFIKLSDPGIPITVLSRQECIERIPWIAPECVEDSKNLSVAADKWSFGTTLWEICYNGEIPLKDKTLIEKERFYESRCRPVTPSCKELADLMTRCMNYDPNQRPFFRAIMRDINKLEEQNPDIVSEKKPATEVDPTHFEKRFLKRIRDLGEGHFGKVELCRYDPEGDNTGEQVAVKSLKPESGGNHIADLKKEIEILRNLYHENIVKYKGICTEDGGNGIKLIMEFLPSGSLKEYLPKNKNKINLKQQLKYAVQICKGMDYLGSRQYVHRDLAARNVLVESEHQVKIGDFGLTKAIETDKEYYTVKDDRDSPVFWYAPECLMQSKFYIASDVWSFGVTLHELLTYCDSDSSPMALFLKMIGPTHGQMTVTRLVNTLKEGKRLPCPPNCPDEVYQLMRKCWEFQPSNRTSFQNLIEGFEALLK
- Experiment Description: JAK enzymatic assay (peptide mobility shift), JAK1
- Reported Conditions: recombinant JAK1 20 nM, IRS-1 peptide, 240 minutes
pIC50: −log10 of the molar value.
Category key, based on recorded pIC50: A: < 8; B: ≥ 8 and < 9; C: ≥ 9

Qu. Dear colleague, I would appreciate it if you could identify the bin for CN(c1ncnc2[nH]ccc12)[C@H]1CC[C@H](CS(=O)(=O)N2C[C@@H](O)[C@@H](O)C2)CC1 [Example 71] and reply at your convenience.
Ans. B

Qu. Dear colleague, I would appreciate it if you could identify the bin for CN(c1ncnc2[nH]ccc12)[C@H]1CC[C@H](CS(=O)(=O)N2CC[C@H](CO)C2)CC1 [Example 31] and reply at your convenience.
Ans. B

Qu. Dear colleague, I would appreciate it if you could identify the bin for CN(c1ncnc2[nH]ccc12)[C@H]1CC[C@H](CS(=O)(=O)N2CC[C@H](Cc3ccccc3)C2)CC1 [Example 104] and reply at your convenience.
Ans. A

Qu. Dear colleague, I would appreciate it if you could identify the bin for CN(c1ncnc2[nH]ccc12)[C@H]1CC[C@H](CS(=O)(=O)N2CC[C@H](S(C)(=O)=O)C2)CC1 [Example 76] and reply at your convenience.
Ans. B

Qu. Dear colleague, I would appreciate it if you could identify the bin for CN(c1ncnc2[nH]ccc12)[C@H]1CC[C@H](CS(=O)(=O)N2CCC(C)(O)C2)CC1 (some centres unmarked) [Example 137] and reply at your convenience.
Ans. C

Qu. Dear colleague, I would appreciate it if you could identify the bin for CN(c1ncnc2[nH]ccc12)[C@H]1CC[C@H](CS(=O)(=O)N2CCC[C@@H](OC(=O)C(C)(C)C)C2)CC1 [Example 134] and reply at your convenience.
Ans. C

Qu. Dear colleague, I would appreciate it if you could identify the bin for CCN1CCN(C[C@H]2CCN(S(=O)(=O)C[C@H]3CC[C@H](N(C)c4ncnc5[nH]ccc45)CC3)C2)C(=O)C1=O [Example 105] and reply at your convenience.
Ans. A

Qu. Dear colleague, I would appreciate it if you could identify the bin for CN(c1ncnc2[nH]ccc12)[C@H]1CC[C@H](CS(=O)(=O)N2CCC(CC(N)=O)CC2)CC1 [Example 55] and reply at your convenience.
Ans. A

Qu. Dear colleague, I would appreciate it if you could identify the bin for CN(c1ncnc2[nH]ccc12)[C@H]1CC[C@H](CS(=O)(=O)N2CC[C@H](c3ccccn3)C2)CC1 [Example 107] and reply at your convenience.
Ans. B

Qu. Dear colleague, I would appreciate it if you could identify the bin for CN(c1ncnc2[nH]ccc12)[C@H]1CC[C@H](CS(=O)(=O)N2CCC[C@H](O)C2)CC1 [Example 58] and reply at your convenience.
Ans. B

Qu. Dear colleague, I would appreciate it if you could identify the bin for CNC(=O)C1CCN(S(=O)(=O)C[C@H]2CC[C@H](N(C)c3ncnc4[nH]ccc34)CC2)CC1 [Example 54] and reply at your convenience.
Ans. A

Qu. Dear colleague, I would appreciate it if you could identify the bin for CN(c1ncnc2[nH]ccc12)[C@H]1CC[C@H](CS(=O)(=O)N2CC[C@H](CC#N)C2)CC1 [Example 32] and reply at your convenience.
Ans. B

Qu. Dear colleague, I would appreciate it if you could identify the bin for CN(c1ncnc2[nH]ccc12)[C@H]1CC[C@H](CS(=O)(=O)N2CC[C@H](c3ncccn3)C2)CC1 [Example 87] and reply at your convenience.
Ans. B

Qu. Dear colleague, I would appreciate it if you could identify the bin for CCOP(=O)(OCC)O[C@@H]1CCCN(S(=O)(=O)C[C@H]2CC[C@H](N(C)c3ncnc4[nH]ccc34)CC2)C1 [Example 140] and reply at your convenience.
Ans. C

Qu. Dear colleague, I would appreciate it if you could identify the bin for CN(c1ncnc2[nH]ccc12)[C@H]1CC[C@H](CS(=O)(=O)N2CC[C@H](S(=O)(=O)CCc3ccccc3)C2)CC1 [Example 83] and reply at your convenience.
Ans. B
